- TARGET_SYSTEM: Prostaglandin G/H synthase 1 (Ovis aries) (UniProt P05979)
- ASSAY_EXPLANATION: Inhibition of ovine COX1 assessed as inhibition of PGF2a formation at 10 uM after 20 mins by Ellman's method
VALUE_TYPE: inhibition (%)

Completed entries (count: 3):
MOLECULE	VALUE_TYPE	QUANTITY_UNIT	REPORTED_MEASUREMENT
N#CSC[C@@H]1C[C@](O)(c2ccccc2)[C@@H](c2ccccc2)[C@H](c2ccc(Br)cc2)O1 (relative stereo)	inhibition	%	29
CCSC[C@@H]1C[C@@](O)(c2ccccc2)C[C@H](c2ccc(Br)cc2)O1 (relative stereo)	inhibition	%	94
N#CSC[C@@H]1C[C@](O)(c2ccccc2)[C@@H](c2ccccc2)[C@H](c2ccccc2)O1 (relative stereo)	inhibition	%	27

(A) CCSC[C@@H]1C[C@@](O)(c2ccccc2)C[C@H](C)O1 (relative stereo)
(B) CCSC[C@@H]1C[C@@](O)(c2ccccc2)C[C@H](c2ccccc2)O1 (relative stereo)
Between the entries labeled A and B , whose measured inhibition is lower? // respond with label for picked entry A

###

- TARGET_SYSTEM: Prostaglandin G/H synthase 1 (Ovis aries) (UniProt P05979)
- ASSAY_EXPLANATION: Inhibition of ovine COX1 assessed as inhibition of PGF2a formation at 100 uM after 20 mins by Ellman's method
VALUE_TYPE: inhibition (%)

COMPOUND	REPORTED_MEASUREMENT
C[C@H]1C[C@](O)(c2ccccc2)C[C@@H](CSC#N)O1 (relative stereo)	65
CCSC[C@@H]1C[C@](O)(c2ccccc2)[C@@H](c2ccccc2)[C@H](c2ccccc2)O1 (relative stereo)	52
N#CSC[C@@H]1C[C@](O)(c2ccccc2)[C@@H](c2ccccc2)[C@H](c2ccc(Br)cc2)O1 (relative stereo)	50
CCSC[C@@H]1C[C@](O)(c2ccccc2)[C@@H](c2ccccc2)[C@H](c2ccc(Br)cc2)O1 (relative stereo)	60
CCSC[C@@H]1C[C@@](O)(c2ccccc2)C[C@H](C)O1 (relative stereo)	62
N#CSC[C@@H]1C[C@](O)(c2ccccc2)[C@@H](c2ccccc2)[C@H](c2ccccc2)O1 (relative stereo)	50

###

- TARGET_SYSTEM: Prostaglandin G/H synthase 1 (Ovis aries)
- ASSAY_EXPLANATION: Inhibition of ovine COX1 assessed as inhibition of PGF2a formation at 1 uM after 20 mins by Ellman's method
VALUE_TYPE: inhibition (%)

(1) CCSC[C@@H]1C[C@@](O)(c2ccccc2)C[C@H](c2ccc(Br)cc2)O1 (relative stereo)
(2) N#CSC[C@@H]1C[C@@](O)(c2ccccc2)C[C@H](c2ccccc2)O1 (relative stereo)
Which entry shows the lesser value of inhibition here, 1 or 2 ? Please identify the chosen entry by its label. 2

###

- TARGET_SYSTEM: Prostaglandin G/H synthase 1 (Ovis aries) (UniProt P05979)
- Sequence (whole entry): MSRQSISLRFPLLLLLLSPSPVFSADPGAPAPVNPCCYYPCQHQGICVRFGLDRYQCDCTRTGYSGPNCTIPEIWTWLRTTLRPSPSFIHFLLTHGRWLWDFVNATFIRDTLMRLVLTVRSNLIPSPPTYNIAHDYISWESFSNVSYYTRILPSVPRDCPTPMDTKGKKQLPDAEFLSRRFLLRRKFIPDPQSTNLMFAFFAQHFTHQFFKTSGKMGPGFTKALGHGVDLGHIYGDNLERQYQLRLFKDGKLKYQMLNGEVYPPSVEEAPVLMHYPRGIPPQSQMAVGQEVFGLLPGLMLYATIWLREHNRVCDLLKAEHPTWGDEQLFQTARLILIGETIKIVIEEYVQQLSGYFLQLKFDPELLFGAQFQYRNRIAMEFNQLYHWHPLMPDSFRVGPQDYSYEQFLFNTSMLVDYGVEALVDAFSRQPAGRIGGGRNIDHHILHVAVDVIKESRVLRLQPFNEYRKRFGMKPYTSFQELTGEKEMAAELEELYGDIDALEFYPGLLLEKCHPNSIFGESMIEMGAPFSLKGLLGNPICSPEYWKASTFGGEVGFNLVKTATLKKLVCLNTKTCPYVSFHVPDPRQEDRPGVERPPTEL
- ASSAY_EXPLANATION: Inhibition of ovine COX1 assessed as inhibition of PGF2a formation at 100 nM after 20 mins by Ellman's method
VALUE_TYPE: inhibition (%)

COMPOUND	TARGET_SYSTEM	QUANTITY_UNIT	REPORTED_MEASUREMENT
C[C@H]1C[C@](O)(c2ccccc2)C[C@@H](CSC#N)O1 (relative stereo)	Prostaglandin G/H synthase 1 (Ovis aries) (UniProt P05979)	%	38
CCSC[C@@H]1C[C@@](O)(c2ccccc2)C[C@H](C)O1 (relative stereo)	Prostaglandin G/H synthase 1 (Ovis aries) (UniProt P05979)	%	40
N#CSC[C@@H]1C[C@@](O)(c2ccccc2)C[C@H](c2ccccc2)O1 (relative stereo)	Prostaglandin G/H synthase 1 (Ovis aries) (UniProt P05979)	%	26

(I) CCSC[C@@H]1C[C@@](O)(c2ccccc2)C[C@H](c2ccccc2)O1 (relative stereo)
(II) CCSC[C@@H]1C[C@@](O)(c2ccccc2)C[C@H](c2ccc(Br)cc2)O1 (relative stereo)
Problem: Given the entries I and II , determine which has the lower reported inhibition. Field: selected label. Fill in the label of the entry you choose. I
